Cited source for all entries: patent US5210193A

Reported values of MIC for individual entries
Test system: Enterobacter cloacae K 84-10
protocol_details: in vitro antibacterial MIC, agar plate dilution
Type: cell-based
assay_conditions: Enterobacter cloacae, K8410, 18 h, 35° C., read-out: MIC

// worked examples, MIC included
>>> endpoint_value("CCn1cc(C(=O)O)c(=O)c2cc(F)c(N3CCN(C)C(c4cc5cc(Cl)ccc5o4)C3)cc21 (stereo not drawn) [Example 55]")
"> 256 µg/mL"
>>> endpoint_value("CCn1cc(C(=O)O)c(=O)c2cc(F)c(N3CCNC(c4sc5ccccc5c4C)C3)cc21 (stereo not drawn) [Example 22]")
"> 256 µg/mL"

Now consider the entry below.
So for CCn1cc(C(=O)O)c(=O)c2cc(F)c(N3CCN(C)C(c4sc5ccccc5c4C)C3)cc21 (stereo not drawn) [Example 54] , the logged MIC turned out to be > 256 µg/mL
